Some compounds, each annotated with its measured IC50.
# System: hP2X4 (human purinergic P2X receptor subtype 4) (Homo sapiens)
# Recorded Conditions: P2X4 IC50 (nM), HEK293 cells stably expressing hP2X4; agonist BZ-ATP 2.5 μM; FLIPR calcium

> print(dat)
                           smiles.structure  recorded.endpoint  reported.result
1  NS(=O)(=O)c1cc(NC(=O)Cc2ccccc2Cl)cc2nc(Cl)ccc12               IC50     50 to 200 nM

## Task I'd like to know its IC50. The compound in question is "NS(=O)(=O)c1cc(NC(=O)Cc2ccccc2Cl)cc2c1CCN(CC1CC1)C2"
## Result 200 to 5000 nM

## Task I'd like to know its IC50. The compound in question is "NS(=O)(=O)c1cc(NC(=O)Cc2ccccc2Cl)cc2c(C3CC3)nccc12"
## Result < 10 nM

## Task I'd like to know its IC50. The compound in question is "CN(C)c1ccc2c(S(N)(=O)=O)cc(NC(=O)Cc3ccccc3Cl)cc2n1"
## Result 50 to 200 nM

====

Some compounds, each annotated with its measured IC50.
# System: hP2X4 (human purinergic P2X receptor subtype 4) (Homo sapiens)
# Sequence (Q99571 1-404 isoform Q99571-2): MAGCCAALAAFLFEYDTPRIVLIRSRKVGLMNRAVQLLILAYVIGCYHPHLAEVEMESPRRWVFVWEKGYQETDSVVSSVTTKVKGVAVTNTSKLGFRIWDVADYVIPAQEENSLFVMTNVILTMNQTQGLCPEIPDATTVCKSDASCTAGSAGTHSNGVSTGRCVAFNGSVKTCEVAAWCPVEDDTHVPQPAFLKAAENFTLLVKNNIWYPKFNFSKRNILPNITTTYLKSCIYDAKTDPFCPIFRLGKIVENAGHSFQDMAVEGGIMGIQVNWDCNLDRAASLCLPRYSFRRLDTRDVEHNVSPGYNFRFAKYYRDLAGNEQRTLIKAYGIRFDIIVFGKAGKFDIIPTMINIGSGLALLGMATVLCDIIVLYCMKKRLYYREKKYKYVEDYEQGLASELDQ
# Recorded Conditions: P2X4 IC50 (nM), HEK293 cells stably expressing hP2X4; agonist BZ-ATP 2.5 μM; FLIPR calcium

> print(dat)
                                   compound  recorded.endpoint  reported.result
1  Nc1nccc2c(S(N)(=O)=O)cc(NC(=O)Cc3ccccc3Cl)cc12               IC50   200 to 5000 nM
2  COc1ccc2c(S(N)(=O)=O)cc(NC(=O)Cc3ccccc3Cl)cc2n1 [Compound 65]               IC50      10 to 50 nM
3  NS(=O)(=O)c1cc(NC(=O)Cc2ccccc2Cl)cc2c(OC3CC3)nccc12               IC50      10 to 50 nM

Next compound, IC50 to be filled in.
## Task I'd like to know its IC50. The compound in question is "CC(C)Oc1nccc2c(S(N)(=O)=O)cc(NC(=O)Cc3ccccc3Cl)cc12"
## Result 10 to 50 nM

====

# System: hP2X4 (human purinergic P2X receptor subtype 4) (Homo sapiens)
# Sequence (Q99571 1-404 isoform Q99571-2): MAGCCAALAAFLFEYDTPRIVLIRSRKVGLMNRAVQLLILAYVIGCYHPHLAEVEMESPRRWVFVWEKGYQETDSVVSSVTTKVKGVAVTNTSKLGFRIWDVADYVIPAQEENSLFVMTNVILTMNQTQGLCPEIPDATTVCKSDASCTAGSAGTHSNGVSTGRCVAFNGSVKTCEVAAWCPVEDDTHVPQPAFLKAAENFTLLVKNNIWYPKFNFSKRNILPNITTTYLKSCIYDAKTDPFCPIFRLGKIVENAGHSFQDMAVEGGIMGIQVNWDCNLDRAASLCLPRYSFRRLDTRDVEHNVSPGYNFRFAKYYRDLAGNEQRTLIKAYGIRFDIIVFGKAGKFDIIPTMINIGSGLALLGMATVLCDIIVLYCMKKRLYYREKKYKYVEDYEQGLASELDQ
# Recorded Conditions: P2X4 IC50 (nM), HEK293 cells stably expressing hP2X4; agonist BZ-ATP 2.5 μM; FLIPR calcium
Recorded Endpoint: IC50

Take a look at these entries with their results.
> print(dat)
                                   compound  reported.result
1  CC(C)Nc1ccc2c(S(N)(=O)=O)cc(NC(=O)Cc3ccccc3Cl)cc2n1   200 to 5000 nM
2  N#Cc1nccc2c(S(N)(=O)=O)cc(NC(=O)Cc3ccccc3Cl)cc12 [Compound 44]   200 to 5000 nM
3  NS(=O)(=O)c1cc(NC(=O)Cc2ccccc2Cl)cc2c1CCN(C1CC1)C2      10 to 50 nM
4  NS(=O)(=O)c1cc(NC(=O)Cc2ccccc2Cl)cc2c1CCNC2   200 to 5000 nM
5  COc1nccc2c(S(N)(=O)=O)cc(NC(=O)Cc3ccc(F)cc3Cl)cc12     50 to 200 nM

## Task I'd like to know its IC50. The compound in question is "NS(=O)(=O)c1cc(NC(=O)Cc2ccccc2Cl)cc2c(OCCC3CC3)nccc12"
## Result 50 to 200 nM

## Task I'd like to know its IC50. The compound in question is "NS(=O)(=O)c1cc(NC(=O)Cc2ccccc2Cl)cc2c1CCN(C1COC1)C2"
## Result 200 to 5000 nM

## Task I'd like to know its IC50. The compound in question is "NS(=O)(=O)c1cc(NC(=O)Cc2ccccc2Cl)cc2c1CCN(c1ccc(C(F)(F)F)cn1)C2"
## Result 10 to 50 nM

====

Some compounds, each annotated with its measured IC50.
# System: hP2X4 (human purinergic P2X receptor subtype 4) (Homo sapiens, UniProt Q99571)
# Recorded Conditions: P2X4 IC50 (nM), HEK293 cells stably expressing hP2X4; agonist BZ-ATP 2.5 μM; FLIPR calcium

> print(dat)
                           smiles.structure  recorded.endpoint  reported.result
1  COC(=O)N1CCCc2c1cc(NC(=O)Cc1ccccc1Cl)cc2S(N)(=O)=O               IC50   200 to 5000 nM
2  NS(=O)(=O)c1cc(NC(=O)Cc2ccccc2Cl)cc2c(OCF)nccc12               IC50     50 to 200 nM
3  NS(=O)(=O)c1cc(NC(=O)Cc2ccccc2Cl)cc2c(OCC3CC3)nccc12               IC50      10 to 50 nM

Next compound, IC50 to be filled in.
## Task I'd like to know its IC50. The compound in question is "COc1nccc2c(S(N)(=O)=O)cc(NC(=O)Cc3ccccc3C#N)cc12"
## Result 200 to 5000 nM

====

# System: hP2X4 (human purinergic P2X receptor subtype 4) (Homo sapiens)
# Sequence (Q99571 1-404 isoform Q99571-2): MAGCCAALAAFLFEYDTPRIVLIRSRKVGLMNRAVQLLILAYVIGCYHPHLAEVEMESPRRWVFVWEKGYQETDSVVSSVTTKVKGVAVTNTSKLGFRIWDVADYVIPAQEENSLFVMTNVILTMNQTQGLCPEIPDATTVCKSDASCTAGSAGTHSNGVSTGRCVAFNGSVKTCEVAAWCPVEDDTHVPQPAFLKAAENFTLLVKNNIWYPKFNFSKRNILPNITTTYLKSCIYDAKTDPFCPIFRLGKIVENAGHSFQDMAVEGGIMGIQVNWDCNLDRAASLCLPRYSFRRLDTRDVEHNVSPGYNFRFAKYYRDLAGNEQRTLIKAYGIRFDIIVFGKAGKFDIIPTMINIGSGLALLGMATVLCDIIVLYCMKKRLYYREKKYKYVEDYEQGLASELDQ
# Recorded Conditions: P2X4 IC50 (nM), HEK293 cells stably expressing hP2X4; agonist BZ-ATP 2.5 μM; FLIPR calcium
Some molecules, each annotated with its measured IC50.

Take a look at these entries with their results.
> print(dat)
                           smiles.structure  recorded.endpoint  reported.result
1  NS(=O)(=O)c1cc(NC(=O)Cc2ccccc2Cl)cc2cnc(N3CCCCC3)cc12               IC50     50 to 200 nM
2  NS(=O)(=O)c1cc(NC(=O)Cc2ccccc2Cl)cc2c1CCN(C(=O)OC1CC1)C2               IC50      10 to 50 nM
3  CC(C)c1nccc2c(S(N)(=O)=O)cc(NC(=O)Cc3ccccc3Cl)cc12               IC50          < 10 nM
4  NS(=O)(=O)c1cc(NC(=O)Cc2ccccc2Cl)cc2ncccc12               IC50      10 to 50 nM
5  NS(=O)(=O)c1cc(NC(=O)Cc2ccccc2Cl)cc2c(C(F)F)nccc12               IC50          < 10 nM
6  NS(=O)(=O)c1cc(NC(=O)Cc2ccccc2Cl)cc2c(Cl)nccc12               IC50      10 to 50 nM

## Task I'd like to know its IC50. The molecule in question is "NS(=O)(=O)c1cc(NC(=O)Cc2ccccc2Cl)cc2c(OC3CCCC3)nccc12"
## Result 10 to 50 nM

## Task I'd like to know its IC50. The molecule in question is "COc1nccc2c(S(N)(=O)=O)cc(NC(=O)Cc3ccc(Cl)cc3Cl)cc12"
## Result 50 to 200 nM

## Task I'd like to know its IC50. The molecule in question is "NS(=O)(=O)c1cc(NC(=O)Cc2ccccc2Cl)cc2c(Oc3ccc(F)cc3)nccc12"
## Result 10 to 50 nM

## Task I'd like to know its IC50. The molecule in question is "Nc1ncc2c(S(N)(=O)=O)cc(NC(=O)Cc3ccccc3Cl)cc2n1"
## Result 200 to 5000 nM

## Task I'd like to know its IC50. The molecule in question is "NS(=O)(=O)c1cc(NC(=O)Cc2ccccc2Cl)cc2c(OC(F)F)nccc12"
## Result < 10 nM

## Task I'd like to know its IC50. The molecule in question is "COc1ccc(Nc2cc3c(S(N)(=O)=O)cc(NC(=O)Cc4ccccc4Cl)cc3cn2)cc1"
## Result 200 to 5000 nM

## Task I'd like to know its IC50. The molecule in question is "NS(=O)(=O)c1cc(NC(=O)Cc2ccccc2Cl)cc2c1CCN(C(=O)C1CCC1)C2"
## Result 10 to 50 nM

## Task I'd like to know its IC50. The molecule in question is "NS(=O)(=O)c1cc(NC(=O)Cc2ccccc2Cl)cc2c(=O)[nH]ccc12"
## Result 200 to 5000 nM

## Task I'd like to know its IC50. The molecule in question is "COc1nccc2c(S(N)(=O)=O)cc(NC(=O)Cc3cc(F)ccc3Cl)cc12"
## Result 50 to 200 nM

## Task I'd like to know its IC50. The molecule in question is "NS(=O)(=O)c1cc(NC(=O)Cc2ccccc2Cl)cc2c(CF)nccc12"
## Result 50 to 200 nM

## Task I'd like to know its IC50. The molecule in question is "COc1ccc(Oc2nccc3c(S(N)(=O)=O)cc(NC(=O)Cc4ccccc4Cl)cc23)cc1"
## Result 10 to 50 nM

## Task I'd like to know its IC50. The molecule in question is "C=CC(F)(F)N1CCc2c(cc(NC(=O)Cc3ccccc3Cl)cc2S(N)(=O)=O)C1"
## Result 200 to 5000 nM

## Task I'd like to know its IC50. The molecule in question is "CC(C)OC(=O)N1CCc2c(cc(NC(=O)Cc3ccccc3Cl)cc2S(N)(=O)=O)C1"
## Result 10 to 50 nM

## Task I'd like to know its IC50. The molecule in question is "CC(C)Nc1cc2c(S(N)(=O)=O)cc(NC(=O)Cc3ccccc3Cl)cc2cn1"
## Result 50 to 200 nM
